# Experiment Description: xn = mol fraction of the nth substance listed
# Recorded Conditions: 303.15 K; 101.33 kPa; x2 = 0.95
Quantity Kind: viscosity (mPa·s)
Write the value in mPa·s as a bare number.

// worked examples, viscosity included
Molecule: CC[N+](=O)[O-] + CC(C)O
viscosity [mPa·s]: 1.507
--
Molecule: CC[N+](=O)[O-] + CCCO
viscosity [mPa·s]: 1.559

For CC[N+](=O)[O-] + CO the molecule record lists viscosity as 0.501

Recorded viscosity (molecule CC[N+](=O)[O-] + CC(C)(C)O ): 2.574

###

Reported viscosity values for the following compounds.
# Experiment Description: xn = mol fraction of the nth substance listed
# Recorded Conditions: 303.15 K; 101.33 kPa; x2 = 0.9
Enter your answer as a number in mPa·s; do not include the unit.

Known results for compounds:
Compound: CC[N+](=O)[O-] + CCCO
viscosity, mPa·s: 1.377
//
Compound: CC[N+](=O)[O-] + CC(C)O
viscosity, mPa·s: 1.305

response.value for CC[N+](=O)[O-] + CO (field: viscosity) = 0.495

Data point: CC[N+](=O)[O-] + CCO ; viscosity = 0.847

###

# Experiment Description: xn = mol fraction of the nth substance listed
# Recorded Conditions: 293.15 K; 101.33 kPa; x2 = 0.65
Quantity Kind: viscosity (mPa·s)
Please respond with the number in mPa·s and leave the unit unwritten.

Example results:
Compound: CC[N+](=O)[O-] + CO
Numeric Readout: 0.552

Compound: CC[N+](=O)[O-] + CCO
Numeric Readout: 0.769

# viscosity of CC[N+](=O)[O-] + CC(C)O = 1

The measured viscosity associated with CC[N+](=O)[O-] + CCCO reads 1.085

###

# Experiment Description: xn = mol fraction of the nth substance listed
# Recorded Conditions: 293.15 K; 101.33 kPa; x2 = 0.55
Quantity Kind: viscosity (mPa·s)
Just the number in mPa·s, nothing appended.

Compound: CC[N+](=O)[O-] + CO
viscosity [mPa·s]: 0.556

// field: viscosity; key: CC[N+](=O)[O-] + CCC(C)O ; value = 1.034

Given item CC[N+](=O)[O-] + CCO , the value recorded as its viscosity is 0.716

Sure, the documented viscosity for CC[N+](=O)[O-] + CCCO is 0.951

###

# Experiment Description: xn = mol fraction of the nth substance listed
# Recorded Conditions: 293.15 K; 101.33 kPa; x2 = 0.4
viscosity values for the compounds below.
Quick reminder: number only, in mPa·s, skip the unit.

Guide cases for viscosity, answers given:
Compound: CC[N+](=O)[O-] + CCO
Unit Of Measure: mPa·s
viscosity: 0.668
--
Compound: CC[N+](=O)[O-] + CCC(C)O
Unit Of Measure: mPa·s
viscosity: 0.845
--
Compound: CC[N+](=O)[O-] + CCCO
Unit Of Measure: mPa·s
viscosity: 0.808
--
Compound: CC[N+](=O)[O-] + CC(C)O
Unit Of Measure: mPa·s
viscosity: 0.766

So, CC[N+](=O)[O-] + CO ? Its viscosity was 0.57

###

# Experiment Description: xn = mol fraction of the nth substance listed
# Recorded Conditions: 313.15 K; 101.33 kPa; x2 = 0.3
Listing: viscosity of selected molecules
Give the value in mPa·s but do not write mPa·s after it.

Some molecules with recorded viscosity:
Molecule: CC[N+](=O)[O-] + CCCO
viscosity [mPa·s]: 0.567

Molecule: CC[N+](=O)[O-] + CCO
viscosity [mPa·s]: 0.506

// recorded viscosity for CC[N+](=O)[O-] + CC(C)O : 0.538

Briefly, viscosity measured for CC[N+](=O)[O-] + CO : 0.462
